Cited source: patent US20130184280A1

Measured IC50 values are reported for all entries that follow.
- tested system: VEGFR2 kinase (Homo sapiens, UniProt P35968)
- Construct: purchased InVitrogen
- Sequence (P35968 20-1356): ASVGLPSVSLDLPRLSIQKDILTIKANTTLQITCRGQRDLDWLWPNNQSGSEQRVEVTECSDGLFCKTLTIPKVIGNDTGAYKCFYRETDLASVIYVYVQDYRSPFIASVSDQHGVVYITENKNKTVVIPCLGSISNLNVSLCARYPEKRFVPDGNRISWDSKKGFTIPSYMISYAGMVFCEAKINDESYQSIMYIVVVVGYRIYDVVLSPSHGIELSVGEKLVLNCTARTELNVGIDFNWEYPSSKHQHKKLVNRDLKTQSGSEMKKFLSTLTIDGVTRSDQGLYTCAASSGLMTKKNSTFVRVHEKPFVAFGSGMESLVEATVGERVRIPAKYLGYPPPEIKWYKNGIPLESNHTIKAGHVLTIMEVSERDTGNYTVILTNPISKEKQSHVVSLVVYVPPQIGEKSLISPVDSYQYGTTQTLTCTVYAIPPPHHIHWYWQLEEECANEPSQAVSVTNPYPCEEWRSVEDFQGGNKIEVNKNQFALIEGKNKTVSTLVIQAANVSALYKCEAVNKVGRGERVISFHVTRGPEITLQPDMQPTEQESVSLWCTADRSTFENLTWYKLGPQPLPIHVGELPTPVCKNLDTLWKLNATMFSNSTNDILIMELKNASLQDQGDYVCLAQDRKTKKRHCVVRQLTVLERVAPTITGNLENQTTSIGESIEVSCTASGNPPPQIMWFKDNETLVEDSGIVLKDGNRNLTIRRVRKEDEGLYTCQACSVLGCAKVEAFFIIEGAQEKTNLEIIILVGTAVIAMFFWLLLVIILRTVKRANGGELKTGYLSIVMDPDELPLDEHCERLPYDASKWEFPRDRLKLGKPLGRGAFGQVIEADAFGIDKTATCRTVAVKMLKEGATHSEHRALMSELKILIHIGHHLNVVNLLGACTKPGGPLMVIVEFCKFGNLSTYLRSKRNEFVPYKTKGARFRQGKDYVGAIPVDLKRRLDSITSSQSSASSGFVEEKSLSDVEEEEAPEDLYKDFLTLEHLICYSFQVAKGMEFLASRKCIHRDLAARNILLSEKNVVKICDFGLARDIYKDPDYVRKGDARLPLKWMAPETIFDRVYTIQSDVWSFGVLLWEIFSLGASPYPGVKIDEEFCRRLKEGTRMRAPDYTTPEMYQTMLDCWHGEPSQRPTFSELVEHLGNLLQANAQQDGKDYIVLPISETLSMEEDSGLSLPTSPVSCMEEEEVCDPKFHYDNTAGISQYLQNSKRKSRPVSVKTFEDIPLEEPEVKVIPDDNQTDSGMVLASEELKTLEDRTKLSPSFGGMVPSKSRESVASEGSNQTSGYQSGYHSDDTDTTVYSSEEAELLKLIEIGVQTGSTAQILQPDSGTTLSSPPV
- procedure summary: In Vitro VEGFR2 Kinase Assay
- Type: biochemical
- particulars: FP; CSKtide substrate, 60 minutes at room temperature
Report only the number, with the unit nM understood.

Nc1ncncc1-c1nc(-c2cccc(NC(=O)Nc3ccc(Cl)cc3)c2)cs1 [Compound 16] :: 4
Cc1cccc(NC(=O)c2cccc(-c3csc(-c4cncnc4N)n3)c2)c1 [Compound 49] :: 400
Nc1ncncc1-c1nc(-c2cccc(NC(=O)Cc3ccccc3)c2)cs1 [Compound 45] :: 40
CCOC(=O)c1cccc(NC(=O)Nc2cccc(-c3csc(-c4cncnc4N)n3)c2)c1 [Compound 42] :: 100
Nc1ncncc1-c1nc(-c2cccc(NC(=O)NC3CCCCC3)c2)cs1 [Compound 65] :: 40
Nc1ncncc1-c1nc(-c2cccc(NC(=O)c3ccc(Cl)cc3)c2)cs1 [Compound 8] :: 70

Could you tell me which IC50 is on file for CC(=O)Nc1cccc(-c2csc(-c3cncnc3N)n2)c1 [Compound 61] ? 300

Could you tell me which IC50 is on file for Nc1ncncc1-c1nc(-c2cccc(NC(=O)Nc3cccc(CO)c3)c2)cs1 [Compound 44] ? 30

Could you tell me which IC50 is on file for Nc1ncncc1-c1nc(-c2cccc(NC(=O)c3ccc(-c4ccccc4)cc3)c2)cs1 [Compound 15] ? 400

Could you tell me which IC50 is on file for COc1ccccc1C(=O)Nc1cccc(-c2csc(-c3cncnc3N)n2)c1 [Compound 25] ? 300

Could you tell me which IC50 is on file for Nc1ncncc1-c1nc(-c2cccc(NC(=O)NC3CCCC3)c2)cs1 [Compound 63] ? 70

Could you tell me which IC50 is on file for Cc1cccc(C(=O)Nc2cccc(-c3csc(-c4cncnc4N)n3)c2)c1 [Compound 41] ? 10

Could you tell me which IC50 is on file for CCNC(=O)Nc1cccc(-c2csc(-c3cncnc3N)n2)c1 [Compound 60] ? 80

Could you tell me which IC50 is on file for CCc1ccc(NC(=O)Nc2cccc(-c3csc(-c4cncnc4N)n3)c2)cc1 [Compound 28] ? 70

Could you tell me which IC50 is on file for Cc1ccccc1NC(=O)Nc1cccc(-c2csc(-c3cncnc3N)n2)c1 [Compound 19] ? 70

Could you tell me which IC50 is on file for COc1ccc(NC(=O)Nc2cccc(-c3csc(-c4cncnc4N)n3)c2)cc1 [Compound 14] ? 30

Could you tell me which IC50 is on file for Nc1ncncc1-c1nc(-c2cccc(NC(=O)Nc3ccc4c(c3)OCO4)c2)cs1 [Compound 72] ? 60

Could you tell me which IC50 is on file for CC(C)(O)c1cccc(NC(=O)Nc2cccc(-c3csc(-c4cncnc4N)n3)c2)c1 [Compound 43] ? 20

---

- tested system: VEGFR2 kinase (Homo sapiens)
- Construct: purchased InVitrogen
- procedure summary: In Vitro VEGFR2 Kinase Assay
- Format: biochemical
- particulars: FP; CSKtide substrate, 60 minutes at room temperature
Rule: IC50 below 200 nM gives MET. Equal to or above 200 nM gives NOT MET.

Nc1ncncc1-c1nc(-c2cccc(NC(=O)NCc3ccccc3)c2)cs1 [Compound 58] :: MET
N#Cc1cccc(NC(=O)Nc2cccc(-c3csc(-c4cncnc4N)n3)c2)c1 [Compound 30] :: NOT MET
N#Cc1ccc(NC(=O)Nc2cccc(-c3csc(-c4cncnc4N)n3)c2)cc1 [Compound 29] :: MET
Nc1ncncc1-c1nc(-c2cccc(NC(=O)Nc3cccc(Cl)c3)c2)cs1 [Compound 31] :: MET

IC50 under 200 nM? Item: Nc1ncncc1-c1nc(-c2cccc(NC(=O)N3CCC(O)CC3)c2)cs1 [Compound 69] NOT MET

IC50 under 200 nM? Item: COc1ccccc1NC(=O)Nc1cccc(-c2csc(-c3cncnc3N)n2)c1 [Compound 26] MET

IC50 under 200 nM? Item: Nc1ncncc1-c1nc(-c2cccc(NC(=O)Nc3cccc(C(F)(F)F)c3)c2)cs1 [Compound 39] MET

IC50 under 200 nM? Item: Nc1ncncc1-c1nc(-c2cccc(NC(=O)c3cccnc3)c2)cs1 [Compound 23] NOT MET

IC50 under 200 nM? Item: Nc1ncncc1-c1nc(-c2cccc(NC(=O)Nc3ccc(F)c(C(F)(F)F)c3)c2)cs1 [Compound 10] MET

IC50 under 200 nM? Item: CCOC(=O)CNC(=O)Nc1cccc(-c2csc(-c3cncnc3N)n2)c1 [Compound 59] NOT MET

IC50 under 200 nM? Item: Nc1ncncc1-c1nc(-c2cccc(NC(=O)c3ccc(F)cc3)c2)cs1 [Compound 5] MET

---

- procedure summary: In Vitro Cytotoxicity Assay HCT116 (CellTiter-Glo)
- Type: cell-based
- particulars: human, HCT116 colon carcinoma cells, cultured three days
assay metric: IC50 at 3 days (µM)
Report only the number, with the unit µM understood.

Solved cases (5 shown):
Nc1ncncc1-c1nc(-c2cccc(NC(=O)CN3CCCCC3)c2)cs1 [Compound 67] :: 10
CCCCOC(=O)c1ccccc1NC(=O)Nc1cccc(-c2csc(-c3cncnc3N)n2)c1 [Compound 36] :: 10
Nc1ncncc1-c1nc(-c2cccc(NC(=O)Nc3cccc(C(F)(F)F)c3)c2)cs1 [Compound 39] :: 2
Nc1ncncc1-c1nc(-c2cccc(NC(=O)c3ccncc3)c2)cs1 [Compound 24] :: 30
Cc1ccc(NC(=O)Nc2cccc(-c3csc(-c4cncnc4N)n3)c2)cc1C [Compound 27] :: 2

Could you tell me which IC50 at 3 days is on file for Nc1ncncc1-c1nc(-c2cccc(NC(=O)Nc3ccc4c(c3)OCO4)c2)cs1 [Compound 72] ? 2

Could you tell me which IC50 at 3 days is on file for Nc1ncncc1-c1nc(-c2ccc(NC(=O)Nc3cccc(C(F)(F)F)c3)cc2)cs1 [Compound 1] ? 4

Could you tell me which IC50 at 3 days is on file for Nc1ncncc1-c1nc(-c2cccc(NC(=O)NCc3ccccc3)c2)cs1 [Compound 58] ? 4

Could you tell me which IC50 at 3 days is on file for Cc1cccc(C(=O)Nc2cccc(-c3csc(-c4cncnc4N)n3)c2)c1 [Compound 41] ? 20

Could you tell me which IC50 at 3 days is on file for CCOC(=O)CNC(=O)Nc1cccc(-c2csc(-c3cncnc3N)n2)c1 [Compound 59] ? 30

---

- procedure summary: In Vitro Cytotoxicity Assay HCT116 (CellTiter-Glo)
- Assay type: cell-based
- particulars: human, HCT116 colon carcinoma cells, cultured three days
Measured IC50 at 3 days values are reported for all entries that follow.
Report only the number, with the unit µM understood.

Solved cases (3 shown):
COc1ccc(NC(=O)Nc2cccc(-c3csc(-c4cncnc4N)n3)c2)cc1 :: 20
Nc1ncncc1-c1nc(-c2cccc(NC(=O)Cc3cccc(C(F)(F)F)c3)c2)cs1 :: 7
Nc1ncncc1-c1nc(-c2cccc(NC(=O)Nc3cccc(F)c3)c2)cs1 :: 40

Could you tell me which IC50 at 3 days is on file for Nc1ncncc1-c1nc(-c2cccc(NC(=O)c3ccc(F)cc3)c2)cs1 ? 30

Could you tell me which IC50 at 3 days is on file for Nc1ncncc1-c1nc(-c2cccc(NC(=O)c3ccc(F)c(F)c3)c2)cs1 ? 50

Could you tell me which IC50 at 3 days is on file for Nc1ncncc1-c1nc(-c2cccc(NC(=O)N3CCC(O)CC3)c2)cs1 ? 4

---

- procedure summary: In Vitro Cytotoxicity Assay HCT116 (CellTiter-Glo)
- Assay type: cell-based
- particulars: human, HCT116 colon carcinoma cells, cultured three days
assay metric: IC50 at 3 days

Solved cases (2 shown):
CCc1cccc(C)c1NC(=O)Nc1cccc(-c2csc(-c3cncnc3N)n2)c1 :: > 50 µM
Nc1ncncc1-c1nc(-c2cccc(NC(=O)c3ccc([N+](=O)[O-])cc3)c2)cs1 :: > 50 µM

Consider now this further molecule.
Could you tell me which IC50 at 3 days is on file for Cc1ccccc1NC(=O)Nc1cccc(-c2csc(-c3cncnc3N)n2)c1 ? > 50 µM

---

Measured IC50 values are reported for all entries that follow.
- tested system: VEGFR2 kinase (Homo sapiens, UniProt P35968)
- Construct: purchased InVitrogen
- procedure summary: In Vitro VEGFR2 Kinase Assay
- Type: biochemical
- particulars: FP; CSKtide substrate, 60 minutes at room temperature
Report only the number, with the unit nM understood.

Nc1ncncc1-c1nc(-c2cccc(NC(=O)Cc3cccc(C(F)(F)F)c3)c2)cs1 :: 100

Could you tell me which IC50 is on file for Nc1ncncc1-c1nc(-c2cccc(NC(=O)c3ccc([N+](=O)[O-])cc3)c2)cs1 ? 200

Could you tell me which IC50 is on file for Nc1ncncc1-c1nc(-c2cccc(NC(=O)C3CCCC3)c2)cs1 ? 300

Could you tell me which IC50 is on file for Nc1ncncc1-c1nc(-c2cccc(NC(=O)Nc3ccccc3)c2)cs1 ? 10

Could you tell me which IC50 is on file for CN(C)Cc1cccc(C(=O)Nc2cccc(-c3csc(-c4cncnc4N)n3)c2)c1 ? 400

Could you tell me which IC50 is on file for Nc1ncncc1-c1nc(-c2cccc(NC(=O)c3cccc(CNCCO)c3)c2)cs1 ? 100

Could you tell me which IC50 is on file for Nc1ncncc1-c1nc(-c2cccc(NC(=O)Nc3ccccc3Cl)c2)cs1 ? 30

Could you tell me which IC50 is on file for CCCCOC(=O)c1ccccc1NC(=O)Nc1cccc(-c2csc(-c3cncnc3N)n2)c1 ? 300

Could you tell me which IC50 is on file for Cc1ccc(NC(=O)Nc2cccc(-c3csc(-c4cncnc4N)n3)c2)cc1C ? 40
